- Tested on: MAPKAPK2
- CONDITION_INFO: concentration: 1 μM, replicates: in singlicate; n = 1;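 also: KINOMEscan kinase panel screen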
TEST_READOUT: %Inh (%)

| COMPOUND | TEST_READOUT | RECORDED_RESULT |
| --- | --- | --- |
| C[C@@H]1CC[C@H](C(=O)NC2CCCCC2)CN1c1cc(-c2ccc3c(N)n[nH]c3c2)nc(N)n1 [GSK2291363] | %Inh | 0 |
| O=C(Nc1n[nH]c2nc(-c3ccccc3)c(Br)cc12)C1CC1 [SB-708998] | %Inh | 0 |
| Cn1c(=O)c(F)c(Nc2ccc(I)cc2F)c2c(=O)n(OC[C@H](O)CO)cnc21 | %Inh | 0 |
| COc1cc2ncn(-c3cc(OCc4ccc(S(C)(=O)=O)cc4)c(C(N)=O)s3)c2cc1OC [GW869979] | %Inh | 0 |
| CCn1c(-c2nonc2N)nc2ccccc21 [SB-693162/GW549034] | %Inh | 0 |
| Cc1ccccc1COc1cc(-n2cnc3cc(Cl)ccc32)sc1C(N)=O [GW813349] | %Inh | 0 |
| Nc1ncnc2c1ncn2-c1cccc(F)c1 [SKF-97560] | %Inh | 0 |
| Nc1n[nH]c2nnc(-c3ccccc3)c(-c3ccccc3)c12 [GW554060] | %Inh | 22 |
| CN1C(=O)C(Nc2ccccc2)=C(c2ccccc2)C1=O [SB-300079] | %Inh | 0 |
| COC(=O)c1c(-c2ccccc2)c2cc(Br)ccc2c(=O)n1Cc1ccc(NC(=O)CCC(=O)O)cc1 | %Inh | 16 |
| COc1cccc(C2=C(Nc3cccc(C(=O)O)c3)C(=O)NC2=O)c1 [SB-390770] | %Inh | 6 |
| CCS(=O)(=O)c1ccc(OC)c(Nc2ncc(-c3ccc(F)cc3)o2)c1.Cl [GW591947] | %Inh | 1 |

###

Collected %Inh values appear next to each entry.
- Tested on: PIK3C2B
- CONDITION_INFO: concentration: 1 μM, replicates: in singlicate; n = 1
TEST_READOUT: %Inh (%)

| COMPOUND | MEASURED_ON | TEST_READOUT | UNIT_INFO | RECORDED_RESULT |
| --- | --- | --- | --- | --- |
| COc1cc2ncn(-c3cc(OCCCc4ccccc4)c(C(N)=O)s3)c2cc1OC | PIK3C2B | %Inh | % | 8 |
| CN(C)c1cc(-c2ccc3c(N)n[nH]c3c2)nc(N)n1 | PIK3C2B | %Inh | % | 0 |
| CCc1nc(-c2cccc(C)c2)c(-c2ccncc2)s1 | PIK3C2B | %Inh | % | 0 |
| Nc1nccc2scc(-c3ccc4c(c3)CCN4C(=O)Cc3ccccc3)c12 | PIK3C2B | %Inh | % | 5 |
| COc1cc2nccc(Nc3ccc(OCc4ccc(NC(C)=O)cc4)cc3)c2cc1OC.Cl | PIK3C2B | %Inh | % | 17 |
| CCS(=O)(=O)c1ccc(OC)c(Nc2ncc(-c3ccc(F)cc3)o2)c1.Cl | PIK3C2B | %Inh | % | 0 |
| COc1cccc(-n2cnc3c(N)ncnc32)c1 | PIK3C2B | %Inh | % | 0 |
| Nc1nc(N)c2nc(-c3ccccc3)[nH]c2n1 | PIK3C2B | %Inh | % | 0 |
| CN1C(=O)C(Nc2cc(Cl)c(O)c(Cl)c2)=C(c2ccc(Cl)cc2)C1=O | PIK3C2B | %Inh | % | 0 |
| COc1ccc(Nc2nccc(N3CCC(NS(=O)(=O)c4ccc(NC(C)=O)cc4)C3)n2)cc1 (stereo not shown) | PIK3C2B | %Inh | % | 7 |
| COc1cc(Nc2ccnc3ccc(C(F)(F)F)cc23)cc(OC)c1OC | PIK3C2B | %Inh | % | 0 |
| Cc1nc(N(C)[C@H]2CN(C(=O)CC#N)CC[C@H]2C)c2cc[nH]c2n1 | PIK3C2B | %Inh | % | 0 |
| COC(=O)c1c(-c2ccccc2)c2cc(C)ccc2c(=O)n1Cc1ccccc1 | PIK3C2B | %Inh | % | 0 |
| FC(F)(F)c1ccc(-c2ncn(CCCN3CCOCC3)c2-c2ccncc2)cc1 | PIK3C2B | %Inh | % | 0 |
| OCCCNc1nccc(-c2c(-c3cccc(C(F)(F)F)c3)nn3cc(C(F)(F)F)ccc23)n1 | PIK3C2B | %Inh | % | 0 |
| CCC(=O)c1c(-c2ccccc2)c2cc(Cl)ccc2c(=O)n1Cc1cc(S(C)(=O)=O)n(CC(N)=O)n1 | PIK3C2B | %Inh | % | 0 |
| COc1cc2ncn(-c3cc(OCc4ccncc4Br)c(C(N)=O)s3)c2cc1OC | PIK3C2B | %Inh | % | 54 |
| COc1cccc(C2=C(N(C)c3ccccc3)C(=O)NC2=O)c1 | PIK3C2B | %Inh | % | 0 |
| COc1ccc(-n2cnc3c(N)ncnc32)cc1 | PIK3C2B | %Inh | % | 0 |
| Cc1cccc(-c2nc(Nc3ccc4c(cnn4C)c3)c3ccccc3n2)n1 | PIK3C2B | %Inh | % | 0 |
| Cc1ccc(-c2ccc3c(ccc4sc5c(c43)NC[C@@H](C)N=C5N(C)C)n2)cn1 | PIK3C2B | %Inh | % | 0 |
| COc1cc(Nc2nccc(N3CCC(NC(=O)C4COc5ccccc5O4)C3)n2)cc(OC)c1OC (stereo not shown) | PIK3C2B | %Inh | % | 10 |
| Cl.c1ccc(Cn2cnc3cc(Nc4ncnc5ccccc45)ccc32)cc1 | PIK3C2B | %Inh | % | 3 |
| O=C(Nc1n[nH]c2nc(-c3ccccc3)c(Cl)cc12)C1CC1 | PIK3C2B | %Inh | % | 35 |
| COC(=O)c1c(-c2ccccc2)c2cc(Br)ccc2c(=O)n1Cc1ccc(NC(=O)CCC(=O)O)cc1 | PIK3C2B | %Inh | % | 0 |
| COc1ccc(-c2cc3c(C)nc(N)nc3n([C@H]3CC[C@H](O)CC3)c2=O)cn1 | PIK3C2B | %Inh | % | 99.6 |
| O=C(Nc1n[nH]c2nc(-c3ccccc3)c(Br)cc12)C1CC1 | PIK3C2B | %Inh | % | 0 |
| CCc1ccc(-c2ccc3c(c2)-c2nn(C)cc2S(=O)(=O)N3C)cc1 | PIK3C2B | %Inh | % | 0 |
| COc1ccc(-c2cc3c(C)nc(N)nc3n([C@H]3CC[C@H](OCCO)CC3)c2=O)cn1 | PIK3C2B | %Inh | % | 98.1 |
| CCC(=O)c1c(-c2ccccc2)c2cc(Cl)ccc2c(=O)n1Cc1cc(S(C)(=O)=O)n(CCC(C)(C)O)n1 | PIK3C2B | %Inh | % | 41 |
| O=c1cc(N2CCOCC2)nc2n(Cc3ccc(F)c(Cl)c3)ccn12 | PIK3C2B | %Inh | % | 31 |
| COc1cc2ncn(-c3cc(OCc4ccc(S(C)(=O)=O)cc4)c(C(N)=O)s3)c2cc1OC | PIK3C2B | %Inh | % | 0 |
| CCC(=O)c1c(-c2ccccc2)c2cc(Cl)ccc2c(=O)n1Cc1ccc(C(=O)O)cc1 | PIK3C2B | %Inh | % | 0 |
| Cc1cccc(-c2cc(-c3c[nH]nc3-c3ccccn3)ccn2)c1 | PIK3C2B | %Inh | % | 1 |
| Cc1nnc(-c2ccc(C)c(-c3ccc(C(=O)O)cc3)c2)o1 | PIK3C2B | %Inh | % | 0 |
| CCn1c(-c2ccoc2)nc2cnccc21 | PIK3C2B | %Inh | % | 6 |
| Cl.NS(=O)(=O)c1cccc(Nc2cc(-c3ccc(F)cc3)n[nH]2)c1 | PIK3C2B | %Inh | % | 0 |
